Reported TGI values for the following compounds.
# Tested on: SK-MEL-5 melanoma
# assay.comment: NCI tumour cell line growth inhibition, 48 h
parameter.measured: TGI

compound=COc1cccc2cc(C(=O)O)c(=O)oc12 measured_value="> 100 µM"
compound=CCCCCOc1ccc(/C=N/Nc2cc(C)nc3ccc(Br)cc23)cc1 measured_value="3.16 µM"
compound=COc1ccc2c(c1)C(=O)OCCC2 measured_value="> 100 µM"
compound="CC1=C(C(=O)Nc2ccc(Cl)c(Cl)c2)C(c2cccc(Oc3ccccc3)c2)NC(=O)N1 (stereo not drawn)" measured_value="17 µM"
compound=CCn1c(=O)c2c(=O)c3c4c(oc3oc2c2ccccc21)C(=O)c1ccccc1C4=O measured_value="> 100 µM"
compound=O=C(Nc1ccc(-n2ccc3c(NC(=O)c4ccccc4)nccc32)cc1)Nc1ccc(Cl)c(Cl)c1 measured_value="2.2 µM"
compound=COc1cc2c(OC)cc1CSCc1sc(C)c(c1Br)CSC2 measured_value="> 100 µM"
compound="O=C1NP23(OCCO2)Oc2ccccc2C3(C(F)(F)F)O1 (stereo not drawn)" measured_value="> 100 µM"
compound=Cc1nc(-[n+]2nc(-c3ccncc3)nn2-c2ccccc2)sc1C measured_value="> 100 µM"
compound=COc1ccc(-c2coc3c4c(ccc3c2=O)OCO4)cc1OC measured_value="> 100 µM"
compound="CC(C(=O)OCc1ccccc1)(c1ccco1)N1C(=O)OC(c2ccccc2)C1c1ccccc1 (stereo not drawn)" measured_value="> 100 µM"
compound=Cc1cc(S(=O)(=O)O)c(NC(=O)C(=O)Cc2cc(=O)oc3cc(O)ccc23)cc1Cl measured_value="> 100 µM"
compound="CC(CO)CCNc1ncnc2c1ncn2CCC(=O)OC(C)(C)C (stereo not drawn)" measured_value="> 100 µM"
compound="O=C1OCC2C1C1c3ccccc3C(O)c3ccccc3C21 (stereo not drawn)" measured_value="> 100 µM"
compound="COc1ccc2c(c1)nc1n2C(c2c(Cl)cccc2Cl)SC1 (stereo not drawn)" measured_value="> 100 µM"
compound="N#CC(OC1OC(COC2OC(CO)C(O)C(O)C2O)C(O)C(O)C1O)c1ccccc1 (stereo not drawn)" measured_value="> 225 µM"
compound=S=c1[nH]c(=S)c2nnn(-c3ccccc3)c2[nH]1 measured_value="> 100 µM"
compound=COc1c[c]([Hg][O]C(C)=O)c(OC)c(NC(=O)CC(C)=O)[c]1[Hg][O]C(C)=O measured_value="11.2 µM"
compound=O=C1NC(=O)C(c2c[nH]c3ccccc23)=C1c1cn(C(c2ccccc2)(c2ccccc2)c2ccccc2)cn1 measured_value="20.8 µM"
compound=COc1ccc(-n2cnn3c(=O)c4cn[nH]c4nc23)cc1 measured_value="> 10 µM"
compound=CCn1sc2ccccc2c1=O measured_value="25 µM"
compound="O=C(O)C1C2C=CC(C2)C1c1ccccc1 (stereo not drawn)" measured_value="> 100 µM"
compound=C=C(C(=O)O)[C@@H]1C[C@@H](OC(C)=O)[C@]2(C)CC/C=C(\C)CCC[C@H](C)[C@H](O)[C@@H]1O2 measured_value="> 100 µM"

###

# Test system: U251 CNS
# assay.comment: NCI tumour cell line growth inhibition, 48 h
parameter.measured: TGI

compound="COCC1(CO)C(=O)C2CCN1CC2 (configuration not stated)" target_of_assay="U251 CNS" parameter_measured=TGI measured_value="> 100 µM"
compound=COC(=O)c1ccccc1Nc1nc(-c2cccs2)nc2cc(OC)c(OC)cc12 target_of_assay="U251 CNS" parameter_measured=TGI measured_value="> 100 µM"
compound="O=CN1CCN(CC(O)CN2CCCCC2)CC1 (configuration not stated)" target_of_assay="U251 CNS" parameter_measured=TGI measured_value="> 100 µM"
compound=CCCCCCOc1ccc(Nc2c(O)c3c(c(O)c2Cl)C(=O)C=CC3=O)cc1 target_of_assay="U251 CNS" parameter_measured=TGI measured_value="> 6.07 µM"
compound=CC1=NC(=Cc2cc(Br)cc(Br)c2)C(=O)N1n1c(-c2ccccc2)nc2ccccc2c1=O target_of_assay="U251 CNS" parameter_measured=TGI measured_value="> 100 µM"
compound=Cc1cc(NS(=O)(=O)c2ccc(Nc3c4ccccc4nc4c(C(=O)N5CCN(CCO)CC5)ccc(Cl)c34)cc2)no1 target_of_assay="U251 CNS" parameter_measured=TGI measured_value="> 100 µM"
compound=COc1cc(N(CCC#N)CCC#N)ccc1/C(N=Nc1ccccc1C)=N\NC(=O)c1ccc(C)cc1 target_of_assay="U251 CNS" parameter_measured=TGI measured_value="> 100 µM"
compound="CC(=O)O[C@H]1CCC2[C@@H]3CCC4Nc5[nH]ncc5C[C@]4(C)C3CC[C@@]21C (some centres not stated)" target_of_assay="U251 CNS" parameter_measured=TGI measured_value="> 100 µM"
compound=O=C1/C(=C/c2cccc(Br)c2)Cc2ccccc21 target_of_assay="U251 CNS" parameter_measured=TGI measured_value="> 100 µM"
compound=COc1cc(C(=O)N2CCN(c3ncccn3)CC2)c(N)cc1OCc1ccccc1 target_of_assay="U251 CNS" parameter_measured=TGI measured_value="> 100 µM"
compound=CC1(C)CC(=O)C(C=NC(=O)c2ccncc2)=C(O)C1 target_of_assay="U251 CNS" parameter_measured=TGI measured_value="> 100 µM"
compound="COC(=O)/C=C1\\CCC(C)O1 (configuration not stated)" target_of_assay="U251 CNS" parameter_measured=TGI measured_value="> 100 µM"

###

# Tested on: UO-31 renal
# assay.comment: NCI tumour cell line growth inhibition, 48 h
Reported TGI values for the following molecules.
parameter.measured: TGI

molecule=CC1=NC(=Cc2cc(Br)cc(Br)c2)C(=O)N1n1c(-c2ccccc2)nc2ccccc2c1=O measured_value="> 100 µM"
molecule=COc1cc(N(CCC#N)CCC#N)ccc1/C(N=Nc1ccccc1C)=N\NC(=O)c1ccc(C)cc1 measured_value="> 100 µM"
molecule=CC(C)N(CCn1c2c3ccccc3ccc2c2oc(=O)c3ccccc3c21)C(C)C measured_value="> 100 µM"
molecule=COc1ccc(-c2csc(Cc3nc4ccccc4c(=O)n3-c3ccc(Cl)cc3)n2)cc1 measured_value="> 100 µM"
molecule=COc1ccc(OC)c(C(Cc2ccnc3ccccc23)Cc2ccnc3ccccc23)c1 measured_value="> 10 µM"
molecule="CC(C(=O)OCc1ccccc1)(c1ccco1)N1C(=O)OC(c2ccccc2)C1c1ccccc1 (stereo not given)" measured_value="> 100 µM"
molecule="CCCCCC(=O)CCCCCCCC(O)CC(=O)OCC (stereo not given)" measured_value="> 100 µM"
molecule=COc1ccc(-n2cnn3c(=O)c4cn[nH]c4nc23)cc1 measured_value="> 10 µM"
molecule="CCC(C)C1NC(=O)C(NC(=O)c2c3[nH]c4c(C(=O)NC5C(=O)NC(C(C)CC)C(=O)N6CCCC6C(=O)N(C)CC(=O)N(C)C(C(C)C)C(=O)OC5C)ccc(C)c4oc-3c(C)c(=O)c2=O)C(C)OC(=O)C(C(C)C)N(C)C(=O)CN(C)C(=O)C2CCCN2C1=O (stereo not given)" measured_value="> 77 µM"
molecule="C=C1C(=O)OC2CC(C)C3(O)CCC(=O)C3(C)CC12 (stereo not given)" measured_value="> 100 µM"

###

# Tested on: A498 renal
# assay.comment: NCI tumour cell line growth inhibition, 48 h; in the data active = GI50 below about 0.43 µM; inactive = the rest
Outcome codes: Yes (active), No (inactive)

compound_smiles=CCOC(=O)/C=C(/C)Sc1cc(O)c2ccccc2c1O cat=No
compound_smiles=COc1cc2c3c(n(CCCOC(=O)C(F)(F)F)c(=O)c2cc1OC)-c1cc2c(cc1C3=O)OCO2 cat=Yes
compound_smiles=N=C(N)c1ccc2nc(-c3cc(CC(=O)N[C@@H](CC(=O)O)C(=O)O)cc(-c4cc(S(N)(=O)=O)ccc4O)c3O)[nH]c2c1 cat=No
compound_smiles=O=C1NC(=O)/C(=C\c2ccccc2)C2=C1CCCC2 cat=No

###

# System: EKVX NSCLC
# assay.comment: NCI tumour cell line growth inhibition, 48 h
Reported TGI values for the following compounds.
parameter.measured: TGI

compound="CC(=O)O[C@H]1CCC2[C@@H]3CCC4Nc5[nH]ncc5C[C@]4(C)C3CC[C@@]21C (stereo partly drawn)" target_of_assay="EKVX NSCLC" measured_value="> 100 µM"
compound=S=c1[nH]c(=S)c2nnn(-c3ccccc3)c2[nH]1 target_of_assay="EKVX NSCLC" measured_value="> 100 µM"
compound=O=Cc1ccc2c(c1-c1c(C=O)ccc3c1OCO3)OCO2 target_of_assay="EKVX NSCLC" measured_value="> 100 µM"

###

# System: A549 NSCLC
# assay.comment: NCI tumour cell line growth inhibition, 48 h
Reported TGI values for the following molecules.
parameter.measured: TGI

molecule="COc1ccc2c(c1)nc1n2C(c2c(Cl)cccc2Cl)SC1 (stereo unspecified)" measured_value="> 100 µM"
molecule=COc1ccc(-n2cnn3c(=O)c4cn[nH]c4nc23)cc1 measured_value="> 10 µM"
molecule=O=C(c1cccs1)N(C(=O)N1CCN(c2ccccc2)CC1)S(=O)(=O)c1ccccc1 measured_value="98.4 µM"
molecule=COC(=O)[C@]12CCC(C)(C)C[C@H]1[C@H]1C(=O)C=C3[C@@]4(C)C=C(C#N)C(=O)C(C)(C)[C@@H]4CC[C@@]3(C)[C@]1(C)CC2 measured_value="1.29 µM"
molecule=O=C(Nc1nncs1)NS(=O)(=O)n1c(=S)sc2ccccc21 measured_value="> 100 µM"
molecule=O=C1c2ccccc2-c2c1c1ccccc1c(=O)n2CCCCl measured_value="16 µM"
molecule=Cc1c(C)n(-c2ccccc2)c2nc(S(C)(=O)=O)nc(S(C)(=O)=O)c12 measured_value="30.4 µM"
molecule=NC(=O)OCCn1cc(-c2nc(-c3c[nH]c4ncccc34)cs2)c2ccccc21 measured_value="23 µM"
molecule=COc1ccc(-c2nc(-c3cc4c(ccc5ccccc54)oc3=O)cs2)cc1 measured_value="> 100 µM"
molecule=Cc1c(/C=N/NC(=O)c2ccc(Cl)cc2)c(=O)n(-c2ccccc2)n1C measured_value="> 100 µM"
molecule=COc1cc(N(CCC#N)CCC#N)ccc1/C(N=Nc1ccccc1C)=N\NC(=O)c1ccc(C)cc1 measured_value="> 100 µM"
molecule=C/C(CC(=O)Nc1cccc(Cl)c1C)=N\NC(=O)c1ccncc1 measured_value="> 100 µM"
molecule=COc1ccc(-c2csc(Cc3nc4ccccc4c(=O)n3-c3ccc(Cl)cc3)n2)cc1 measured_value="> 100 µM"
molecule=CCOc1ccncc1[N+](=O)[O-] measured_value="> 100 µM"
molecule=N#Cc1[nH]c(=S)[nH]c1N measured_value="> 100 µM"
molecule=CN(CCO)c1ccc(N2Cc3ccccc3OC3=C2C(=O)c2c(O)ccc(O)c2C3=O)cn1 measured_value="4.9 µM"

Recorded values, source PubChem BioAssay (NCI).
